# MEASUREMENT TARGET: NDM-1 (Klebsiella pneumoniae)
# Sequence (C7C422 29-270, looked up, species assumed): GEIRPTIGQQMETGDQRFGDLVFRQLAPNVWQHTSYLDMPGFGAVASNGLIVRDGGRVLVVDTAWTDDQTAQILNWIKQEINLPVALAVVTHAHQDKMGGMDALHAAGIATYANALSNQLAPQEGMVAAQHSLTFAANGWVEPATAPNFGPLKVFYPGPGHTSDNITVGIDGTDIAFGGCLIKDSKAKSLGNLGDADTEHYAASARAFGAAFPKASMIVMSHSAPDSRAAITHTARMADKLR
# ASSAY SUMMARY: MBL inhibition, FC-5 fluorescence assay, NDM-1
# Type: biochemical
# RUN CONDITIONS: FC-5 cephalosporin substrate, fluorescence; ranges of obtained pIC50; read-out: pIC50 NDM-1 (converted)
Counter-ions that a name gives are not always drawn.

COMPOUND | IC50
C[C@@H](c1cccc2c(-c3ccc(CN4CCOCC4)nc3)c(C(=O)O)[nH]c12)n1cc(CN2CC(N)C2)oc1=O [IC-52] | < 0.1 nM
CC(c1cccc2c(-c3ccc(CS(C)(=O)=O)c(F)c3)c(C(=O)O)[nH]c12)n1cc(CCCN(C)C)oc1=O (centres unmarked) [IC-75] | 0.1 to 1 nM
C[C@@H](c1cccc2c(-c3ccc(CS(C)(=O)=O)c(F)c3)c(C(=O)O)[nH]c12)n1cc(CCC2(N)CC2)oc1=O [IC-69] | < 0.1 nM
COc1cc(-c2c(C(=O)O)[nH]c3c([C@H](C)N4CC5(CC(CN)C5)OC4=O)cccc23)ccn1 (some centres unmarked) [IC-20] | 0.1 to 1 nM
C[C@H](OCc1ccc(CN)cc1)c1cccc2c(-c3ccc(CS(C)(=O)=O)c(Cl)c3)c(C(=O)O)[nH]c12 (single isomer, unassigned) [IC-87] | < 0.1 nM
CC(c1cccc2c(-c3ccc(CS(C)(=O)=O)c(F)c3)c(C(=O)O)[nH]c12)n1cc(CCCNC(=N)N)oc1=O (centres unmarked) [IC-73, hydrochloride] | 0.1 to 1 nM
C[C@@H](c1cccc2c(-c3c[nH]c(=O)c(F)c3)c(C(=O)O)[nH]c12)N1C[C@]2(C[C@@H](CN)C2)OC1=O [IC-26] | 1 to 10 nM
CC(c1cccc2c(-c3ccc(CS(C)(=O)=O)c(F)c3)c(C(=O)O)[nH]c12)n1cc(CCC2(N)CC2)oc1=O (centres unmarked) [IC-74] | < 0.1 nM
CC(OCc1ccc(CN)cc1)c1cccc2c(-c3ccc(NS(C)(=O)=O)c(C#N)c3)c(C(=O)O)[nH]c12 (centres unmarked) [IC-86] | < 0.1 nM
C[C@@H](c1cccc2c(-c3ccc(CS(C)(=O)=O)c(F)c3)c(C(=O)O)[nH]c12)N1CC2(CCC(N)CC2)OC1=O (some centres unmarked) [IC-71] | 1 to 10 nM
CC(c1cccc2c(-c3ccc(CS(C)(=O)=O)c(F)c3)c(C(=O)O)[nH]c12)N1C(=O)c2cc(O)c(O)cc2C1=O (centres unmarked) [IC-98] | > 10 nM
C/C(=C\C(=O)N1CCOCC1)c1cccc2c(-c3ccc(CS(C)(=O)=O)c(F)c3)c(C(=O)O)[nH]c12 [IC-105] | > 10 nM
CC(c1cccs1)c1cccc2c(-c3ccc(CS(C)(=O)=O)c(F)c3)c(C(=O)O)[nH]c12 (centres unmarked) [IC-4] | 1 to 10 nM
C[C@@H](c1cccc2c(-c3ccc(CS(C)(=O)=O)c(F)c3)c(C(=O)O)[nH]c12)N1CC2(CNC2)OC1=O [IC-65] | 0.1 to 1 nM

----------
# MEASUREMENT TARGET: VIM-1 (Pseudomonas aeruginosa)
# ASSAY SUMMARY: MBL inhibition, FC-5 fluorescence assay, VIM-1
# Format: biochemical
# RUN CONDITIONS: FC-5 cephalosporin substrate, ranges of obtained pIC50, read-out: pIC50 VIM-1 (converted)
The entries below are paired with their reported IC50.
OUTCOME MEASURE: IC50

COMPOUND | REPORTED RESULT
C[C@@H](c1cccc2c(-c3ccc(NS(C)(=O)=O)c(F)c3)c(C(=O)O)[nH]c12)n1cc(CN2CC(N)C2)oc1=O | 1 to 10 nM
C[C@@H](c1cccc2cc(C(=O)O)[nH]c12)N1C[C@]2(C[C@@H](CN)C2)OC1=O | > 10 nM
CC(c1cccc2c(-c3ccc(CS(C)(=O)=O)c(F)c3)c(C(=O)O)[nH]c12)n1cc(CN2CC[C@H](N)C2)oc1=O (some centres unmarked) | 1 to 10 nM
CC(OC(=O)N1CCC(CN)CC1)c1cccc2c(-c3ccc(CS(C)(=O)=O)c(F)c3)c(C(=O)O)[nH]c12 (centres unmarked) | > 10 nM
C[C@@H](c1cccc2c(-c3ccc(CS(C)(=O)=O)c(F)c3)c(C(=O)O)[nH]c12)N1CC2(CN(C(=N)N)C2)OC1=O | 0.1 to 1 nM
COc1ncc(-c2c(C(=O)O)[nH]c3c([C@H](C)N4C[C@]5(C[C@@H](CN)C5)OC4=O)cccc23)cc1O | 1 to 10 nM
CC(c1noc(C2CNC(=O)C2)n1)c1cccc2c(-c3ccc(CS(C)(=O)=O)c(F)c3)c(C(=O)O)[nH]c12 (centres unmarked) | > 10 nM
CC(c1cccs1)c1cccc2c(-c3ccc(CS(C)(=O)=O)c(F)c3)c(C(=O)O)[nH]c12 (centres unmarked) | 1 to 10 nM
C[C@@H](c1cccc2c(-c3cnn(C)c(=O)c3)c(C(=O)O)[nH]c12)N1C[C@]2(C[C@@H](CN)C2)OC1=O | 1 to 10 nM
C=C(CC(=O)NCCc1c[nH]cn1)c1cccc2c(-c3ccc(CS(C)(=O)=O)c(F)c3)c(C(=O)O)[nH]c12 | > 10 nM
CC(c1cnc(Cl)s1)c1cccc2c(-c3ccc(CS(C)(=O)=O)c(F)c3)c(C(=O)O)[nH]c12 (centres unmarked) | 1 to 10 nM
C[C@@H](c1cccc2c(-c3ccc(CS(C)(=O)=O)c(F)c3)c(C(=O)O)[nH]c12)n1cc(CN2CC(C)(N)C2)oc1=O | 1 to 10 nM
C[C@@H](c1cccc2c(-c3ccc(CS(C)(=O)=O)c(F)c3)c(C(=O)O)[nH]c12)n1cc(CN2CC(N)C2)oc1=O | 1 to 10 nM
C[C@@H](c1cccc2c(-c3ccc(NS(C)(=O)=O)c(C#N)c3)c(C(=O)O)[nH]c12)N1C[C@]2(C[C@@H](CN)C2)OC1=O | 1 to 10 nM
C[C@@H](c1cccc2c(-c3cc[nH]c(=O)c3)c(C(=O)O)[nH]c12)n1cc(CN2CC(N)C2)oc1=O | > 10 nM
CC(OCC1CC[N+](C)(C)CC1)c1cccc2c(-c3ccc(CS(C)(=O)=O)c(F)c3)c(C(=O)[O-])[nH]c12 (centres unmarked) | 1 to 10 nM
C[C@@H](c1cccc2c(-c3ccc(CS(C)(=O)=O)c(F)c3)c(C(=O)O)[nH]c12)N1C[C@]2(C[C@H](CN)C2)OC1=O | 0.1 to 1 nM
